log10(GI50) for assorted compounds
Test system: KB
Assay: Anticancer activity against human KB cells after 72 hrs by sulforhodamine B assay
Type: functional
Observable: log10(GI50) (log10 of the value in µM)

Smiles record: COc1ccc2c3c(c4cc(OC)c(OC)cc4c2c1)C[C@@H]1CN(CC(C)C)CCN1C3
Assay system: KB
Reported measurement: 1.05
//
Smiles record: COc1ccc2c3c(c4cc(OC)c(OC)cc4c2c1)C[C@@H]1CN(N(C)C)CN1C3
Assay system: KB
Reported measurement: 0.38
//
Smiles record: COc1ccc2c3c(c4cc(OC)c(OC)cc4c2c1)C[C@H]1CN(CC2CC2)CCN1C3
Assay system: KB
Reported measurement: 0.82
//
Smiles record: COc1ccc2c3c(c4cc(OC)c(OC)cc4c2c1)C[C@H]1CN(CC(C)C)CN1C3
Assay system: KB
Reported measurement: 0.64
//
Smiles record: COC(=O)CN1CCN2Cc3c(c4cc(OC)c(OC)cc4c4cc(OC)ccc34)C[C@H]2C1
Assay system: KB
Reported measurement: 1.17
//
Smiles record: COc1ccc2c3c(c4cc(OC)c(OC)cc4c2c1)C[C@@H]1CCN(N(C)C)CN1C3
Assay system: KB
Reported measurement: 0.45
//
Smiles record: COc1ccc2c3c(c4cc(OC)c(OC)cc4c2c1)C[C@H]1COCCN1C3
Assay system: KB
Reported measurement: -1.43

----------
System: KB
Assay: Anticancer activity against human KB cells after 72 hrs by sulforhodamine B assay
Format: functional

Smiles record: COc1ccc2c3c(c4cc(OC)c(OC)cc4c2c1)C[C@H]1CCN(Cc2ccccc2)CN1C3
Value comparator: >
GI50 (µM): 20
--
Smiles record: COc1ccc2c3c(c4cc(OC)c(OC)cc4c2c1)C[C@H]1CN(C(=O)c2ccccc2)CCN1C3
Value comparator: >
GI50 (µM): 20
--
Smiles record: COc1ccc2c3c(c4cc(OC)c(OC)cc4c2c1)C[C@H]1CCN(c2ccccc2)CN1C3
Value comparator: >
GI50 (µM): 20
--
Smiles record: COc1ccc2c3c(c4cc(OC)c(OC)cc4c2c1)C[C@H]1CN(C2CC2)CCN1C3
Value comparator: >
GI50 (µM): 20
--
Smiles record: COc1ccc2c3c(c4cc(OC)c(OC)cc4c2c1)C[C@H]1CCCCCN1C3
Value comparator: =
GI50 (µM): 0.102
--
Smiles record: COc1ccc2c3c(c4cc(OC)c(OC)cc4c2c1)C[C@H]1CN(CCO)CN1C3
Value comparator: =
GI50 (µM): 7.83
--
Smiles record: COc1ccc2c3c(c4cc(OC)c(OC)cc4c2c1)C[C@H]1CN(C(C)=O)CCN1C3
Value comparator: =
GI50 (µM): 15.5
--
Smiles record: COc1ccc2c3c(c4cc(OC)c(OC)cc4c2c1)C[C@@H]1CCN(CCO)CN1C3
Value comparator: =
GI50 (µM): 2.22

Where do the numbers come from? From ChEMBL document CHEMBL1811876.
